Overview of recorded selectivity ratio for various molecules
procedureText: Selectivity index, ratio of cytotoxicity for human SKOV3 cells to IC50 for Cryptococcus neoformans ATCC 90113
Assay type: toxicity, cell-based, SK-OV-3
conditionDescription: read-out: Selectivity Index
Peptide text beside a SMILES is read from it. * marks the point of attachment. Boc = CC(C)(C)OC(=O)*; NHBn = c1ccc(CN*)cc1

[
  {
    "molecule": "COC(=O)[C@H](CCCNC(=N)N)NC(=O)[C@H](Cc1c[nH]c(-c2ccc(C(C)(C)C)cc2)n1)NC(=O)[C@@H](N)CCCNC(=N)N",
    "selectivity ratio": "> 16.3"
  },
  {
    "molecule": "CC(C)(C)OC(=O)N[C@@H](CCCNC(=N)N)C(=O)N[C@@H](Cc1c[nH]cn1)C(=O)N[C@@H](CCCNC(=N)N)C(=O)NCc1ccccc1 (Boc-Arg-His-Arg-NHBn)",
    "selectivity ratio": "> 1.8"
  },
  {
    "molecule": "N=C(N)NCCC[C@H](NC(=O)[C@H](Cc1c[nH]c(-c2ccc(-c3ccccc3)cc2)n1)NC(=O)[C@@H](N)CCCNC(=N)N)C(=O)NCc1ccccc1",
    "selectivity ratio": "> 100"
  }
]
